System: L. lactis NZ9000 (pEmpty)
Details: broth microdilution (Wiegand et al. 2008); samples in 0.05% acetic acid; strain with empty plasmid
Non-standard residues stand in square brackets, D forms with d. Residues, ends and D or L forms follow the SMILES beside them. *: point of attachment. Oic = O=C(O)[C@@H]1C[C@@H]2CCCC[C@@H]2N1; Pent4ynoyl = C#CCCC(=O)*
quantity_kind: MIC value, L. lactis NZ9000 (pEmpty)

Solved cases below.
molecule="C=C1NC(=O)[C@H]([C@@H](C)CC)NC(=O)[C@H](NC(=O)/C(=C/C)NC(=O)[C@@H](N)[C@@H](C)CC)CSC[C@@H](C(=O)N[C@H]2C(=O)N3CCC[C@H]3C(=O)NCC(=O)N[C@H](C(=O)N[C@@H](CCCCN)C(=O)O)CS[C@H]2C)NC(=O)[C@H](CC(C)C)NC1=O [Nisin AB, reference compound]" target_or_system="L. lactis NZ9000 (pEmpty)" quantity_kind="MIC value, L. lactis NZ9000 (pEmpty)" meas_value=">40 μM"
molecule="C#CCCC(=O)N1[C@H](C(=O)N2[C@H](C(=O)N3[C@H](C(=O)N[C@@H](CCCCN)C(=O)N[C@@H](CCCCN)C(=O)N[C@@H](CCCCN)C(=O)O)C[C@@H]4CCCC[C@@H]43)C[C@@H]3CCCC[C@@H]32)C[C@@H]2CCCC[C@@H]21 [O3K3] (Pent4ynoyl-[Oic][Oic][Oic]KKK-OH)" target_or_system="L. lactis NZ9000 (pEmpty)" quantity_kind="MIC value, L. lactis NZ9000 (pEmpty)" meas_value=">160 μM"
molecule=C=C1NC(=O)[C@H]([C@@H](C)CC)NC(=O)[C@H](NC(=O)/C(=C/C)NC(=O)[C@@H](N)[C@@H](C)CC)CSC[C@@H](C(=O)N[C@H]2C(=O)N3CCC[C@H]3C(=O)NCC(=O)N[C@H](C(=O)N[C@@H](CCCCN)C(=O)NCCCn3cc(CCC(=O)N4[C@H](C(=O)N5[C@H](C(=O)N6[C@H](C(=O)O)C[C@@H]7CCCC[C@@H]76)C[C@@H]6CCCC[C@@H]65)C[C@@H]5CCCC[C@@H]54)nn3)CS[C@H]2C)NC(=O)[C@H](CC(C)C)NC1=O target_or_system="L. lactis NZ9000 (pEmpty)" quantity_kind="MIC value, L. lactis NZ9000 (pEmpty)" meas_value=">40 μM"
molecule=C=C1NC(=O)[C@H]([C@@H](C)CC)NC(=O)[C@H](NC(=O)/C(=C/C)NC(=O)[C@@H](N)[C@@H](C)CC)CSC[C@@H](C(=O)N[C@H]2C(=O)N3CCC[C@H]3C(=O)NCC(=O)N[C@H](C(=O)N[C@@H](CCCCN)C(=O)NCCCn3cc(CCC(=O)N4[C@H](C(=O)N5[C@H](C(=O)N6[C@H](C(=O)N[C@@H](CCCCN)C(=O)N[C@@H](CCCCN)C(=O)N[C@@H](CCCCN)C(=O)O)C[C@@H]7CCCC[C@@H]76)C[C@@H]6CCCC[C@@H]65)C[C@@H]5CCCC[C@@H]54)nn3)CS[C@H]2C)NC(=O)[C@H](CC(C)C)NC1=O target_or_system="L. lactis NZ9000 (pEmpty)" quantity_kind="MIC value, L. lactis NZ9000 (pEmpty)" meas_value=">40 μM"
molecule="C#CCCC(=O)N1[C@H](C(=O)N2[C@H](C(=O)N3[C@H](C(=O)N4[C@H](C(=O)N5[C@H](C(=O)N6[C@H](C(=O)N[C@@H](CCCCN)C(=O)N[C@@H](CCCCN)C(=O)N[C@@H](CCCCN)C(=O)O)C[C@@H]7CCCC[C@@H]76)C[C@@H]6CCCC[C@@H]65)C[C@@H]5CCCC[C@@H]54)C[C@@H]4CCCC[C@@H]43)C[C@@H]3CCCC[C@@H]32)C[C@@H]2CCCC[C@@H]21 [O6K3] (Pent4ynoyl-[Oic][Oic][Oic][Oic][Oic][Oic]KKK-OH)" target_or_system="L. lactis NZ9000 (pEmpty)" quantity_kind="MIC value, L. lactis NZ9000 (pEmpty)" meas_value=">80 μM"

Now consider a different molecule.
Asked: Give the measured MIC value, L. lactis NZ9000 (pEmpty) for C=C1NC(=O)[C@H]([C@@H](C)CC)NC(=O)[C@H](NC(=O)/C(=C/C)NC(=O)[C@@H](N)[C@@H](C)CC)CSC[C@@H](C(=O)N[C@H]2C(=O)N3CCC[C@H]3C(=O)NCC(=O)N[C@H](C(=O)N[C@@H](CCCCN)C(=O)N[C@H]3C(=O)NCC(=O)N[C@@H](C)C(=O)N[C@@H](CC(C)C)C(=O)N[C@@H](CCSC)C(=O)NCC(=O)N[C@H](C(=O)N[C@@H](CC(N)=O)C(=O)O)CS[C@H]3C)CS[C@H]2C)NC(=O)[C@H](CC(C)C)NC1=O [Nisin ABC, reference compound]
Given back: 5.0 μM
